# TEST_TARGET: human TLR7 (Homo sapiens, UniProt Q9NYK1)
# Sequence (Q9NYK1 27-1049): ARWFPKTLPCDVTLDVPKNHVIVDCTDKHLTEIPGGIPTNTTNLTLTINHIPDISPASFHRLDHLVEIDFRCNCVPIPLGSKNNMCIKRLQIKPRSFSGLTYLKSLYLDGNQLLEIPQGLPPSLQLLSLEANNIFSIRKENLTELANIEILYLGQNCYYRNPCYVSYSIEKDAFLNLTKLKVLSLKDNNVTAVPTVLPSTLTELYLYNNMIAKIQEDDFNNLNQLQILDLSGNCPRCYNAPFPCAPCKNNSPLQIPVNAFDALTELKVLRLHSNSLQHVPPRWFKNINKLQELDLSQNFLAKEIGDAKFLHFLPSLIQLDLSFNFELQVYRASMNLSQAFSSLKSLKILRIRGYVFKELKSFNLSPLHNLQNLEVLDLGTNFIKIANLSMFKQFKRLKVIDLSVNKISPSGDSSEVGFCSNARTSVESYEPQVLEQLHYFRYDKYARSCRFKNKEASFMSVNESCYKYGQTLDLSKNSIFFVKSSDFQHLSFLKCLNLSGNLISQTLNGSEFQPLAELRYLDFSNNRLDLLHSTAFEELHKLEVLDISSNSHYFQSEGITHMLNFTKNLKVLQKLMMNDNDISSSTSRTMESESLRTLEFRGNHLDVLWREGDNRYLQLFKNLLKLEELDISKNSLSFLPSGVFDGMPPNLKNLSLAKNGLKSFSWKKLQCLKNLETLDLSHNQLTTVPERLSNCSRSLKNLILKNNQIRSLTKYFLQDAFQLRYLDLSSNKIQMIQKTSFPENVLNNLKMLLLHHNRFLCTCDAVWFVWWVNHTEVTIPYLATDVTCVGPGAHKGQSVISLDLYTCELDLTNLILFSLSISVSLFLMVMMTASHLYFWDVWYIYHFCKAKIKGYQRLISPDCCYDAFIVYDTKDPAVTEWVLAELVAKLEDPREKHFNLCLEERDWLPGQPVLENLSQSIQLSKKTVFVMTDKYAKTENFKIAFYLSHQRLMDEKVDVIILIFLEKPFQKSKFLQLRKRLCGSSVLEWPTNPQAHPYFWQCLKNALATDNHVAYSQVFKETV
# TEST_DESCRIPTION: HEK293-Blue-hTLR-7 cells assay (SEAP reporter, R848 stimulation)
# Format: cell-based
# MEASUREMENT_CONTEXT: HEK293-Blue-hTLR-7 cells, R848 ligand, 20 hrs incubation; read-out: TLR7 IC50
VALUE_KIND: pIC50
Field pIC50 (float): negative decimal logarithm of the concentration in molar.

**Query** Sample C[C@@H]1CN(c2ccc(C#N)n3nccc23)C[C@H](C(=O)NC2CCNC2)O1 (stereo partly drawn) [Example 25] — what was its pIC50?
**Result** 6.82

**Query** Now the compound C[C@@H]1CN(c2ccc(C#N)n3nccc23)C[C@H](C(=O)NC2(C)CCNCC2)O1 [Example 19]
**Result** 7.00

**Query** Now the compound C[C@H]1C[C@@H](NC(=O)[C@H](C)N)CN(c2ccc(C#N)n3nccc23)C1 [Example 44]
**Result** 7.19
